Tested on: MS2 coat protein
Assay: apparent KD of MS2 coat protein; designed switch direction (-1 OFF switch, 1 ON switch): -1; higher = weaker reporter binding
Conditions: input ligand: none
readout: apparent KD of MS2 coat protein (nM)
Kindly provide the numeric value in nM only, without the unit symbol.

>  <primarySequence>
GAUCAUGCAGGAUAUACAGUUUCCAUGAUAACAUGGUCCUCACAUGAGGAUCACCCAUGUAGAAGGGCAUGAUC [Omei Ex2 A29] (Eterna round: R97, puzzle: Exclusion 2)

>  <unitOfMeasurement>
nM

>  <measuredNumber>
1080

$$$$
>  <primarySequence>
AAGCUGUCAGGAUAUCGUUAAUUUAGUUGUUUGUAUUAGUUCGAGAAGGGACAUGAGGAUCACCCAUGUAUGUA [Ex4 #39] (Eterna round: R97, puzzle: Exclusion 4)

>  <unitOfMeasurement>
nM

>  <measuredNumber>
34.2

$$$$
>  <primarySequence>
AACACACAUGAGGAUCACCCAUGUGAGGAUAUCGUCGAGGAUGUAAUGCCAUCCGUGACGAGAAGGCACUUGGG [Exclusion 1 (Mod 3 solution 40 by Eternabot)] (Eterna round: R97, puzzle: Exclusion 1)

>  <unitOfMeasurement>
nM

>  <measuredNumber>
211

$$$$

Q: So what apparent KD of MS2 coat protein did AAAUAGCAUGAGGAUAUUGAACUGUAUACAGUACGAGAAGGCAUGACAUGAGGAUCACCCAUGUUUUGUUGGGA [EX6 #4] (Eterna round: R97, puzzle: Exclusion 6) get with MS2 coat protein?
Result: 49

Q: Tell me reported apparent KD of MS2 coat protein for AGUUAGAUAGGAUAUGCCCGAGAUAACAUGAGGAUCACCCAUGUGACCGAAUCUAUUCUAGCAGAAGGGUUUAGGA [Mod of ViennaUCT 18 - Jieux - Exclusion 5] (Eterna round: R97, puzzle: Exclusion 5) , tested with MS2 coat protein.
Result: 31.3

Q: Notebook: pull reported apparent KD of MS2 coat protein for MS2 coat protein, entry CCGUAACAUGAGGAUCACCCAUGUCAGGAUAUUCCAAAAUCGUCGAAAGACGAUAACAGAAGAAGGGACAACGG [Fiskxlusion 2 - Jieux - Exclusion 1] (Eterna round: R97, puzzle: Exclusion 1)
Result: 28.9

Q: Recorded apparent KD of MS2 coat protein for UUUUUUUUGCGAGGAUAUGCUUUUAGUAAGUUAGCAGAAGGCGCGUUACAUAGAACCUCUUCUUACAUGAGGAUCACCCAUGUU [JR_ExcNG1_Sub035] (Eterna round: R96, puzzle: Exclusion NG 1) with MS2 coat protein, please?
Result: 61.9

Q: Missing value: apparent KD of MS2 coat protein, MS2 coat protein, entry UAAUUAAAUGUAGGAUAUCUGCACGUGUAGUGCAGAGAAGGACAUGAGGAUCACCCAUGUAGAUCAAAUUAAAUUAAUUUAAUU [ENG1/5-D3] (Eterna round: R96, puzzle: Exclusion NG 1) . Fill in?
Result: 23.7

----------
# Lookup of reported apparent KD of MS2 coat protein keyed by entry
Test system: MS2 coat protein
Test: apparent KD of MS2 coat protein; higher = weaker reporter binding
Settings: Eterna round: R107; input ligand: theophylline 20 uM
Put your answer as a value accompanied by its unit after it.

>  <primarySequence>
ACACGAAGCUGAAGGAGCGUGGUAUAAUUUUUUACAUGAGGAUCACCCAUGUCUCAUUUUUCACAGGUAGGUCGCAGAUGCGUGA [JR_SSArginiB_Sub015]

>  <result>
81.6 nM

$$$$
>  <primarySequence>
GUACAUGAGGAUCACCCAUGUAUAGUUGAAGGAGCGACCAGAGGGUCAGGUAGGUCGCAGCACAUGGCGUAAACCCGUGUAUGCC [#1 Exclusion - Arginine A Attempt #23 (Inspired by Pi)]

>  <result>
27.9 nM

$$$$
>  <primarySequence>
CGACUGUAAAGUCGACCGGUCAUCAAUAAUCGAGGACCGGUACGGCCGCCACUCGAUGUGAUUUCACAUGAGGAUCACCCAUGUA [Tryptophan A 17]

>  <result>
26.3 nM

$$$$
>  <primarySequence>
CCAUCUACAUCGGCCGCCACUGAACCAAGGAGACAUGAGGAUCACCCAUGUAUGGGAAACCAUCAUAGGACCGGGAUGAUCUACC [doubleHook]

>  <result>
336 nM

$$$$
>  <primarySequence>
GGGAGAUGAAAAGAUUGAGCUAAAACAGAAGGAGCGUGAAUUAACACAGGUAGGUCGCUGACAACAUGAGGAUCACCCAUGUAUU [Same State Arginine A GF4]

>  <result>
30.4 nM

$$$$

Q: Recorded apparent KD of MS2 coat protein for AUACCUAUUGAGUCGUGUUUCUAUUCAGAUACCAGACUUUUCGUUGUCCCUUGGCAGCUGUUUUACAUGAGGAUCACCCAUGUUG [JR_ExcTheophyA_Sub006] , please?
Result: 18.3 nM

Q: What measured apparent KD of MS2 coat protein goes with ACGUAAUGCAGAAGGAGCGUCUGAUUUUAACAUGAGGAUCACCCAUGUAAUAUUUAUGGUAGACAGGUAGGUCGCUGAAGUACGA [JR_ExcArginiB_Sub002] ?
Result: 16.8 nM

Q: Recorded apparent KD of MS2 coat protein for CACAUGAGGAUCACCCAUGUCUGAACUGAAGGAGCGCUAAAUAAGGCAGGUAGGUCGCGGAAUCUUGUGUGCAUAUGCACACGGG [9.T] , please?
Result: 28.5 nM

Q: Fill in: apparent KD of MS2 coat protein of GCGAUGGAGCGAAGGAGCGUGCUAGUACAUGAGGAUCACCCAUGUGAGUCGCAGCGCUAAGCACAGGUAGGUCGCGCUCCAUCGC [EAB NP+V+V2 #12] is ___
Result: 26.8 nM

Q: Which measured apparent KD of MS2 coat protein value corresponds to GUAUACAUGAGGAUCACCCAUGUACCAGAAGGAGCGCUGGAAACAGCAGGUAGGUCGCUGGUAGGUCCUCUAUCUAGACGUUCUU [EAA NP+V+V2 #6] ?
Result: 167 nM

Q: Tell me the measured apparent KD of MS2 coat protein of ACAUGAGGAUCACCCAUGUGCCGUCUUGAUACCAGACCCGAAGUAGUCCCUUGGCAGCAACUACGUGAGGGUCGCCCAUGUGUAG [5kullin] , please.
Result: 22.2 nM

Q: Quick one: apparent KD of MS2 coat protein for ACAAGUCCUCAUGAUACCAGCGAUGAGACAAAGUCUCAACAUGAGGAUCACCCAUGUACUCGCCCUUGGCAGCAUACGGUUUUUG [Onedxequla] ?
Result: 373 nM

Q: Param item = GGGCGCGUGGACUGGCGUGCUCCGCUCCGUCGAGGACCGGUACGGCCGCCACUCGACAUGAGGAUCACCCAUGUGUGAGCUCGCG [#1 Exclusion - Tryptophan A Attempt #17 (HarryS)] ; retrieve measured apparent KD of MS2 coat protein.
Result: 229 nM

----------
Tested on: MS2 coat protein
Test: apparent KD of MS2 coat protein; designed switch direction (-1 OFF switch, 1 ON switch): 1; higher = weaker reporter binding
Settings: input ligand: FMN 200 uM
Each entry falls in a class defined on apparent KD of MS2 coat protein; the bands are class A = under 0.03 µM, class B = from 0.03 µM up to 0.3 µM, class C = 0.3 µM and over

>  <primarySequence>
CCGCUCCGUGGAGGAUAUGGGCCUGCCCGGGAUAACGGGCCUAACACAUGAGGAUCACCCAUGUCCCAGAAGGCCGCUGGAGCC [Atxerexebe] (Eterna round: R96, puzzle: Same State NG 2)

>  <experimentalSystem>
MS2 coat protein

>  <assignedClass>
class A

$$$$

Q: Could you place UGGUACAUGGGAGGAUAUCAUGCAAACAUGAGGAUCACCCAUGUAGCCAUGGAGACAUGGGUAUAUGAGAAGGCCCAUGUACCU [JL SSNG1 3.52] (Eterna round: R96, puzzle: Same State NG 2) in its proper category? Many thanks.
Result: class C

Q: Place this sequence in its band: GCUCGACUGAUGGCCUACAUGAGGAUCACCCAUGUGAUUGGGCAGGAUAUCUAGAUGCAGGAUGUAGAGAAGGGCCUGUCGAGC [SameState NG3 #44] (Eterna round: R96, puzzle: Same State NG 3)
Result: class C

Q: Entry GGUCGGACUCACAUGAGGAUCACCCAUGUUGGCGAAAGCCGGCAGGAUAUCUGUCCGAAAAGGUCAGAGAAGGGUCAACCGACC [Fiskers NG3ss - 59] (Eterna round: R96, puzzle: Same State NG 3) belongs to which category?
Result: class C

Q: Into which category would you place GGCUGCGUUGUGAAGGAUAUCCGCGUCUGGACAUGAGGAUCACCCAUGUAUGCUUGGAUCGUGCCGGAGAAGGUCACGAAUGAUU [JR_SS002_Sub1213] (Eterna round: R96, puzzle: Same State 2) ?
Result: class A

Q: Which class does AUUGCUUUCGCAGGAUAUGAUGCGAAAAUUGCGUCAGAAGGGUGGAGUAUCUCAUUGCAAGAGGACAUGAGGAUCACCCAUGUC [SameState NG1 #87] (Eterna round: R96, puzzle: Same State NG 1) fall in?
Result: class B

Q: Any idea which band AGAGGAGGAGCAGGAUAUGCGAAGAAGAACGUGGUAGAAGGGCUCAUGCGAUGACAUGAGGAUCACCCAUGUACCUCGCGAGGA [AK SSNG1-V2-9] (Eterna round: R96, puzzle: Same State NG 1) is in?
Result: class C

Q: Which band does CCUAUAGCCACAGGAUAUGAGAACACGUUGAACGUACAUGAGGAUCACCCAUGUCGCCGAUCGACUUAGAAGGGUGGCCCUCGC [Eternabot solution 26] (Eterna round: R96, puzzle: Same State NG 2) fall in?
Result: class B

Q: Class (by measured apparent KD of MS2 coat protein) for GGUAUUAACACAGGAUAUGCUUACGAAACGUAAGCAGAAGGGUGAACAUGAGGAUCACCCAUGUAUGUACCAGGGCGUGAGCCC [JL SSNG1 1.73] (Eterna round: R96, puzzle: Same State NG 1)
Result: class B
